Target: T1, activated KLK4 (human KLK4, C-terminal His tag, pro-KLK4 activated with thermolysin) (UniProt Q9Y5K2 31-254)
T1 chain: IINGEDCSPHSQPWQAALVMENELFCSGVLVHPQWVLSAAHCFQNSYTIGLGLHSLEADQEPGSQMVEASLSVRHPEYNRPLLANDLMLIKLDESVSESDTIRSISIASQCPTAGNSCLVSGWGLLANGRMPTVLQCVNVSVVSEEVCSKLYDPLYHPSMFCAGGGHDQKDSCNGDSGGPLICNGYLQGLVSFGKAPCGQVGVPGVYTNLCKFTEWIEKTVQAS
Assay: peptide substrate degradation inhibition
VALUE TYPE: pKi
Answers are plain numbers, as −log10 of the molar value.

* KLK4 inhibitory peptide K40001 (designed binder) GSGMKETAAAKFERQHMDSPDLGTDDDDKAMADIGSANSDPQFGLFSKYRTPNCRKYEYGVCQRTYLPVCGSDMSTYANECTLCMKIREGGHNIKIIRNGPCGASAAA | 9.80
* KLK4 inhibitory peptide K40004 (designed binder) GSGMKETAAAKFERQHMDSPDLGTDDDDKAMADIGSANSDPQFGLFSKYRTPNCEHAQLGVCQKLYQPVCGSDMSTYANECTLCMKIREGGHNIKIIRNGPCGASAAA | 9.42
* KLK4/KLK8 inhibitory peptide K41042 (designed binder) GSGMKETAAAKFERQHMDSPDLGTDDDDKAMADIGSANSDPQFGLFSKYRTPNCSRYRREGCNRMYNPVCGSDMSTYANECTLCMKIREGGHNIKIIRNGPCGASAAA | 8.55
* KLK4/KLK8 inhibitory peptide K41021 (designed binder) GSGMKETAAAKFERQHMDSPDLGTDDDDKAMADIGSANSDPQFGLFSKYRTPNCRKHTLDGCARIYDPVCGSDMSTYANECTLCMKIREGGHNIKIIRNGPCGASAAA | 7.97
* KLK4/KLK8 inhibitory peptide K41026 (designed binder) GSGMKETAAAKFERQHMDSPDLGTDDDDKAMADIGSANSDPQFGLFSKYRTPNCQRYKMRGCNRMYDPVCGSDMSTYANECTLCMKIREGGHNIKIIRNGPCGASAAA | 7.16

Value sought for every listed binder: pKi.
1. KLK4/KLK8 inhibitory peptide K41024 (designed binder) GSGMKETAAAKFERQHMDSPDLGTDDDDKAMADIGSANSDPQFGLFSKYRTPNCTRYVVNGCSRVYDPVCGSDMSTYANECTLCMKIREGGHNIKIIRNGPCGASAAA
2. KLK4/KLK8 inhibitory peptide K41046 (designed binder) GSGMKETAAAKFERQHMDSPDLGTDDDDKAMADIGSANSDPQFGLFSKYRTPNCGRYYRGWCFKSLEPVCGSDMSTYANECTLCMKIREGGHNIKIIRNGPCGASAAA
3. KLK4/KLK8 inhibitory peptide K41045 (designed binder) GSGMKETAAAKFERQHMDSPDLGTDDDDKAMADIGSANSDPQFGLFSKYRTPNCRKQYWVGCNRMYAPVCGSDMSTYANECTLCMKIREGGHNIKIIRNGPCGASAAA

1: 7.13; 2: 9.51; 3: 9.49

All values here come from patent US20200207837A1.
